# Test system: Streptococcus faecalis CMC 83-120
# protocol-notes: in vitro antibacterial MIC, agar plate dilution
# Type: cell-based
# particulars: Enterococcus faecalis, CMC83120, 18 h, 35° C., read-out: MIC
Where a name gives a salt, the structure may show the parent alone.
measured-metric: MIC (µg/mL)
Give the quantity in µg/mL, number only.

**Query** Reported MIC for CCn1cc(C(=O)O)c(=O)c2cc(F)c(N3CCN(C)C(c4ccnn4C)C3)cc21 (stereo not shown) : what is it?
**Result** 16

**Query** For the molecule shown here, O=C(O)c1cn(C2CC2)c2cc(N3CCNC(c4ccccn4)C3)c(F)cc2c1=O (stereo not shown) , give the reported MIC.
**Result** 4

**Query** Would you kindly share the measured MIC for CCn1cc(C(=O)O)c(=O)c2cc(F)c(N3CCNC(c4ccoc4)C3)cc21 (stereo not shown) ?
**Result** 4

**Query** Record request: MIC value, item O=C(O)c1cn(C2CC2)c2cc(N3CCNC(c4cc[nH]n4)C3)c(F)cc2c1=O (stereo not shown)
**Result** 5

**Query** What value of MIC has been recorded for this entry: "CN1CCN(c2c(F)c(F)c3c(=O)c(C(=O)O)cn(C4CC4)c3c2F)CC1"
**Result** 2

**Query** Which MIC is reported for this molecule? O=C(O)c1cn(C2CC2)c2cc(N3CCNC(C4CC4)C3)c(F)cc2c1=O (stereo not shown)
**Result** 1

**Query** What does the record list as MIC for CCn1cc(C(=O)O)c(=O)c2cc(F)c(N3CCNC(c4ccncc4)C3)c(F)c21 (stereo not shown) ?
**Result** 4

**Query** Item CN1CCN(c2cc3c(cc2F)c(=O)c(C(=O)O)cn3C2CC2)CC1C1CC1 (stereo not shown) has what recorded MIC?
**Result** 4

**Query** Which measured MIC value corresponds to O=C(O)c1cn(C2CC2)c2cc(N3CCNC(CF)C3)c(F)cc2c1=O (stereo not shown) ?
**Result** 2

**Query** Could you tell me which MIC is on file for CCn1cc(C(=O)O)c(=O)c2cc(F)c(N3CCNC(c4cccnc4)C3)cc21 (stereo not shown) ?
**Result** 8

**Query** Endpoint output: MIC of O=C(O)c1cn(C2CC2)c2cc(N3CCNC(c4ccoc4)C3)c(F)cc2c1=O (stereo not shown) . Value?
**Result** 1

**Query** Please give the measured MIC for this molecule: O=C(O)c1cn(C2CC2)c2cc(N3CCNC(c4cc[nH]c4)C3)c(F)cc2c1=O (stereo not shown)
**Result** 0.2

**Query** Can you look up the measured MIC of O=C(O)c1cn(C2CC2)c2cc(N3CCNC(c4ccco4)C3)c(F)cc2c1=O (stereo not shown) for me?
**Result** 1

**Query** What value of MIC has been reported for the following molecule? O=C(O)c1cn(C2CC2)c2cc(N3CCNC(c4ccsc4)C3)c(F)cc2c1=O (stereo not shown) [Example 98, monohydrochloride]
**Result** 1
